species: Homo sapiens; experiment: Pseudo first-order rate constant (K) for disappearance of compound from human whole blood; format: ADME, organism-based
measured quantity: K (min⁻¹)
Give bare numbers, in min⁻¹.

Known K results, listed for orientation:
compound	K, min⁻¹
CN1C=CCC(C(=O)NCCOC(=O)C2N3C(=O)C(NC(=O)Cc4ccccc4)C3SC2(C)C)=C1 (stereo not given)	0.037
CN1C=CCC(C(=O)OCCOC(=O)C2N3C(=O)C(NC(=O)Cc4ccccc4)C3SC2(C)C)=C1 (stereo not given)	0.043
C[n+]1cccc(C(=O)NCCOC(=O)C2N3C(=O)C(NC(=O)Cc4ccccc4)C3SC2(C)C)c1.[I-] (stereo not given)	0.078

Look at each compound and report its K.
1. C[n+]1cccc(C(=O)OCCOC(=O)C2N3C(=O)C(NC(=O)Cc4ccccc4)C3SC2(C)C)c1.[I-] (stereo not given)
2. CN1C=CCC(C(=O)OCOC(=O)C2N3C(=O)C(NC(=O)Cc4ccccc4)C3SC2(C)C)=C1 (stereo not given)

Reply text:
[0.105, 0.045]
